Target: OsWOX13 (Oryza sativa, UniProt Q5QMM3 1-267)
Sequence: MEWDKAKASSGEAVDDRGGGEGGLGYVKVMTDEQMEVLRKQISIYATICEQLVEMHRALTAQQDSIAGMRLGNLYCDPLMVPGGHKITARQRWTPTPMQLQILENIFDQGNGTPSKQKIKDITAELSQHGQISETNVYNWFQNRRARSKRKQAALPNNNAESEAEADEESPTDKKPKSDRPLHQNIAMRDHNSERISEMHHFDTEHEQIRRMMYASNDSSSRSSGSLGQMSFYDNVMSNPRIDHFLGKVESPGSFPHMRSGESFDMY
Experiment: protein-binding microarray (RPBM); PBS, 2% BSA, 51.3 ng/ul salmon testes DNA, 50 uM zinc acetate, 200 nM TF, 25 C, 1 h; high values mean tight binding
Conditions: protein: recombinant; tags: N-terminal polyhistidine and DsRed monomer fusion (pET32a); label: CyDye5-dUTP incorporated in the synthesized complementary strand; 3' TTTTT single-stranded linker to array surface; dsDNA, one strand shown
In all, about 35,000 sequences were measured (“fluorescence intensity (a.u.)”: median about 10,000, highest 2% from about 52,000 on). For the sample, the highest values were picked, then their nearest neighbours and some sequences at random.
# key: entry, value: binding signal

Would you mind telling me what binding signal value was observed for TTATTAATTTGTAATAGGTGTATTTCGGTCTTATTAAACTCGGAGTCACCTAGTGCAG ?
19600 fluorescence intensity (a.u.)

May I ask what binding signal has been recorded for AGCCAATCAGAATCCAAATAAAACATTCTTGCAGCAGGCGCGGAGTCACCTAGTGCAG ?
15900 fluorescence intensity (a.u.)

// returns reported binding signal for input CGGCGTTAATTGTCCTTCGATCCATTATTACAGAAACACTCGGAGTCACCTAGTGCAG
15400 fluorescence intensity (a.u.)

Item under review: TATTTTAGATTGATATACAATCTTTTGTGGTGTTAGCACTCGGAGTCACCTAGTGCAG . Reported binding signal?
52900 fluorescence intensity (a.u.)

For AGTAAATTGGTGTATGATTAGATTAACATGTTAAATGTATCGGAGTCACCTAGTGCAG , what is its reported binding signal?
53500 fluorescence intensity (a.u.)

Could you tell me which binding signal is on file for GGCTTGATTTATTGATTTGTTCTTTAGTACTCCAGTTCAACGGAGTCACCTAGTGCAG ?
25700 fluorescence intensity (a.u.)

Consider the sequence shown here: ATTAATTAGCTCTAGATTAAGCTAATTGCCATCAATGGCTCGGAGTCACCTAGTGCAG What is its recorded binding signal?
46400 fluorescence intensity (a.u.)

For the sequence shown here, ATCCCTAATACGATTTACATGATTAGAGGAGAGACAATTTCGGAGTCACCTAGTGCAG , give the reported binding signal.
4470 fluorescence intensity (a.u.)

Data request, read-out binding signal, for TAAGATAAATTAATTGGTAACCTTGTATGTCCATAAGGGTCGGAGTCACCTAGTGCAG
45400 fluorescence intensity (a.u.)

May I ask what binding signal has been recorded for CAAACAAGCCAGCTCAATCAATCATCGAGCTAGCTGAGCTCGGAGTCACCTAGTGCAG ?
8080 fluorescence intensity (a.u.)

Looking for the measured binding signal of ACTTGCATGCTTAATTGATTTAGTTGGTGACCTTATATCTCGGAGTCACCTAGTGCAG , can you help?
37800 fluorescence intensity (a.u.)

// query binding signal value for entry AATAATGAATTTAAAATAAAATAAAACTGCATGCAAGCGACGGAGTCACCTAGTGCAG
5650 fluorescence intensity (a.u.)

So what does the record say about binding signal for TTTGATTTGATTCGTGTGCTCCCCGCCGCCTTCGATCCCTCGGAGTCACCTAGTGCAG ?
43600 fluorescence intensity (a.u.)

* * *

The following sequences are listed with their measured binding signal values.
Target: OsWOX13 (Oryza sativa, UniProt Q5QMM3 1-267)
Sequence: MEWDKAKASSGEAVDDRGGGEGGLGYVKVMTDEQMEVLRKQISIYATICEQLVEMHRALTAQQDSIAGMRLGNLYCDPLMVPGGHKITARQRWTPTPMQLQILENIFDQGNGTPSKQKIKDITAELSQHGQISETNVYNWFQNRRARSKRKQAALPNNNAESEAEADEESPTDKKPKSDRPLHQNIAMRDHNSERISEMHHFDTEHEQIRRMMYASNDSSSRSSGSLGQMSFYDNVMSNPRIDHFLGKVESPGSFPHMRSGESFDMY
Test: protein-binding microarray (RPBM); PBS, 2% BSA, 51.3 ng/ul salmon testes DNA, 50 uM zinc acetate, 200 nM TF, 25 C, 1 h; high values mean tight binding
Conditions: protein: recombinant; tags: N-terminal polyhistidine and DsRed monomer fusion (pET32a); label: CyDye5-dUTP incorporated in the synthesized complementary strand; 3' TTTTT single-stranded linker to array surface; dsDNA, one strand shown
In all, about 35,000 sequences were measured (“fluorescence intensity (a.u.)”: median about 10,000, highest 2% from about 52,000 on). What follows is part of a selection rich in the highest values, with near analogues and random picks from the rest.

Take a look at these entries with their results.
• GAGTAATTTTCTACTGGTTTTAATAGTTGAAATAGCTGTTCGGAGTCACCTAGTGCAG = 3780 fluorescence intensity (a.u.)
• GACTCTATCTAGAAATTAAATTTAATCAACACATGTAAGTCGGAGTCACCTAGTGCAG = 12800 fluorescence intensity (a.u.)
• ATTGTATCTAATTATTGGCAACATGGAAATTAATCTCTTGCGGAGTCACCTAGTGCAG = 9160 fluorescence intensity (a.u.)
• GCTGACTGGATAAAATCTGATAAGCGTGAAGATGACCTTTCGGAGTCACCTAGTGCAG = 21400 fluorescence intensity (a.u.)
• ATGTCGACATACGTAATTAATGTACACTCAGAACATGTCGCGGAGTCACCTAGTGCAG = 4870 fluorescence intensity (a.u.)
• TTATTTGACACAATGCGATTGAATTGGGGTGCAGGAGTATCGGAGTCACCTAGTGCAG = 6780 fluorescence intensity (a.u.)
• TTAATTATTTTGCTGACATGATTTGTTTTCATTTCGTTGACGGAGTCACCTAGTGCAG = 24100 fluorescence intensity (a.u.)
• TAGCCAATCTAATAGCTCATTCATATAATAATTACATACTCGGAGTCACCTAGTGCAG = 4410 fluorescence intensity (a.u.)

Could you now consider this next sequence?
Please look up its binding signal: ATTTTGAAGTTCCTGTAAGTTGGACATATCTACTGGTTCCCGGAGTCACCTAGTGCAG
65500 fluorescence intensity (a.u.)

* * *

The following sequences are listed with their measured binding signal values.
Target: OsWOX13 (Oryza sativa, UniProt Q5QMM3 1-267)
Sequence: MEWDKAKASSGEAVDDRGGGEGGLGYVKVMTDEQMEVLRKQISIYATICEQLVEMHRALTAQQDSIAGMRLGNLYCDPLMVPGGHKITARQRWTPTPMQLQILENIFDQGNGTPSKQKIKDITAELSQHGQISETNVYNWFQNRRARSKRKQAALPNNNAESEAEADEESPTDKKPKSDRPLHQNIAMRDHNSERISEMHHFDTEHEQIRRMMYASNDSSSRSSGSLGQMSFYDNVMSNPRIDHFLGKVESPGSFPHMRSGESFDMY
Experiment: protein-binding microarray (RPBM); PBS, 2% BSA, 51.3 ng/ul salmon testes DNA, 50 uM zinc acetate, 200 nM TF, 25 C, 1 h; high values mean tight binding
Settings: protein: recombinant; tags: N-terminal polyhistidine and DsRed monomer fusion (pET32a); label: CyDye5-dUTP incorporated in the synthesized complementary strand; 3' TTTTT single-stranded linker to array surface; dsDNA, one strand shown
The full ranking holds about 35,000 sequences; the median of “fluorescence intensity (a.u.)” is about 10,000, and the highest 2% start at about 52,000. What follows is part of a selection rich in the highest values, with near analogues and random picks from the rest.

Study these solved cases before continuing.
- GCTCCTGATTTGCCTGATCAGATCAACAGATTAGCATGATCGGAGTCACCTAGTGCAG: 23600 fluorescence intensity (a.u.)
- ATTGATTTGAATTCCAAATTTGTAATGATGTTGATCACCTCGGAGTCACCTAGTGCAG: 39400 fluorescence intensity (a.u.)
- ACCAGGAAGTCATAAATTAATGGATCGAATATGACCTGCTCGGAGTCACCTAGTGCAG: 3160 fluorescence intensity (a.u.)
- TTCACAAATTTTGATGCGATGATTAGCTAAGGCATGTTCGCGGAGTCACCTAGTGCAG: 23500 fluorescence intensity (a.u.)
- TGGCGGATTGATCTGGAGGTGGGCTTGTTGGGGTTGCTGTCGGAGTCACCTAGTGCAG: 14400 fluorescence intensity (a.u.)

# get_value(readout='binding signal', item= AGAAATTGATTATGGATGAGTGCCCTTCTGCCTATTATGTCGGAGTCACCTAGTGCAG )
55900 fluorescence intensity (a.u.)

binding signal for CGTCTGGGGTTTGATTGGGATTGAGGCGAATTCGGGCGGTCGGAGTCACCTAGTGCAG ?
34000 fluorescence intensity (a.u.)

Could you tell me which binding signal is on file for GCAGAAATGATTGCACTTCAATTATTGAGTAAAACAGATTCGGAGTCACCTAGTGCAG ?
30000 fluorescence intensity (a.u.)

# binding signal lookup, item CTTTGTAATTGGAGTCAATCAAATTGAATGATTTCCCTTTCGGAGTCACCTAGTGCAG
58900 fluorescence intensity (a.u.)

These entries and their values trace back to paper PMC7819943.
